The reported measurements were obtained from patent US20240293367A1.

- METHOD DESCRIPTION: Phase I/IIa clinical PK of oral psilocin-d10, plasma, noncompartmental analysis (Cohorts 1-6)
- Assay type: in vivo, human
- STATED CONDITIONS: human, plasma, po, 16 mg, 16 mg oral, Cohort 6 MDD, all subjects incl. 3 with emesis; read-out: AUC0-24 Mean (SD)
VALUE TYPE: AUC(0-t) (ng·h/mL)
Give the number; ng·h/mL is assumed, so skip it.

Q: Given the entry [2H]C([2H])([2H])N(C([2H])([2H])[2H])C([2H])([2H])C([2H])([2H])c1c[nH]c2cccc(O)c12 [psilocin-d10] , report its measured AUC(0-t).
Ans: 155

----------
- METHOD DESCRIPTION: Phase I/IIa clinical PK of oral psilocin-d10, plasma, noncompartmental analysis (Cohorts 1-6)
- Type: in vivo, human
- STATED CONDITIONS: human, plasma; 3 mg oral, Cohort 2 NHV, Day 1; read-out: Tmax Median
VALUE TYPE: Tmax (h)
Give the number; h is assumed, so skip it.

Q: Given the entry [2H]C([2H])([2H])N(C([2H])([2H])[2H])C([2H])([2H])C([2H])([2H])c1c[nH]c2cccc(O)c12 [psilocin-d10] , report its measured Tmax.
Ans: 2

----------
- METHOD DESCRIPTION: Phase I/IIa clinical PK of oral psilocin-d10, plasma, noncompartmental analysis (Cohorts 1-6)
- Assay type: in vivo, human
- STATED CONDITIONS: human, plasma, oral, 16 mg, 18 doses, no emesis; read-out: mean volume of distribution (Vz/F)
- Text: Phase I/IIa, Randomized, Double-Blind, Placebo-Controlled Study which assesses the safety, tolerability, pharmacokinetics, and pharmacodynamics of multiple ascending oral doses of psilocin-d10 in participants with and without MDD (ClinicalTrials.gov Identifier: NCT05385783). […]
VALUE TYPE: Vd/F

Q: Given the entry [2H]C([2H])([2H])N(C([2H])([2H])[2H])C([2H])([2H])C([2H])([2H])c1c[nH]c2cccc(O)c12 [psilocin-d10] , report its measured Vd/F.
Ans: ~834 L

----------
- METHOD DESCRIPTION: Phase I/IIa clinical PK of oral psilocin-d10, plasma, noncompartmental analysis (Cohorts 1-6)
- Type: in vivo, human
- STATED CONDITIONS: human, plasma; 1 mg oral, Cohort 1 MDD, Day 1 and Day 22 pooled; read-out: Tmax Median
VALUE TYPE: Tmax

Q: Given the entry [2H]C([2H])([2H])N(C([2H])([2H])[2H])C([2H])([2H])C([2H])([2H])c1c[nH]c2cccc(O)c12 , report its measured Tmax.
Ans: 1 h

----------
- METHOD DESCRIPTION: Phase I/IIa clinical PK of oral psilocin-d10, plasma, noncompartmental analysis (Cohorts 1-6)
- Type: in vivo, human
- STATED CONDITIONS: human, plasma, po, 3 mg, 3 mg oral, Cohort 2 NHV, Day 1; read-out: AUC0-inf Mean (SD)
- Text: Phase I/IIa, Randomized, Double-Blind, Placebo-Controlled Study which assesses the safety, tolerability, pharmacokinetics, and pharmacodynamics of multiple ascending oral doses of psilocin-d10 in participants with and without MDD (ClinicalTrials.gov Identifier: NCT05385783). […]
VALUE TYPE: AUC(0-inf) (ng·h/mL)
Give the number; ng·h/mL is assumed, so skip it.

Q: Given the entry [2H]C([2H])([2H])N(C([2H])([2H])[2H])C([2H])([2H])C([2H])([2H])c1c[nH]c2cccc(O)c12 [psilocin-d10] , report its measured AUC(0-inf).
Ans: 35.6

----------
- METHOD DESCRIPTION: Phase I/IIa clinical PK of oral psilocin-d10, plasma, noncompartmental analysis (Cohorts 1-6)
- Format: in vivo, human
- STATED CONDITIONS: human, plasma, po, 3 mg, 3 mg oral, Cohort 2 NHV, Day 1; read-out: Vz/F Mean (SD)
VALUE TYPE: Vd/F

Q: Given the entry [2H]C([2H])([2H])N(C([2H])([2H])[2H])C([2H])([2H])C([2H])([2H])c1c[nH]c2cccc(O)c12 [psilocin-d10] , report its measured Vd/F.
Ans: 584 L

----------
- METHOD DESCRIPTION: Phase I/IIa clinical PK of oral psilocin-d10, plasma, noncompartmental analysis (Cohorts 1-6)
- Type: in vivo, human
- STATED CONDITIONS: human, plasma, po, 8 mg, 8 mg oral, Cohorts 2 and 3 NHV, pooled; read-out: T1/2 Mean (SD) (converted)
- Description: Phase I/IIa, Randomized, Double-Blind, Placebo-Controlled Study which assesses the safety, tolerability, pharmacokinetics, and pharmacodynamics of multiple ascending oral doses of psilocin-d10 in participants with and without MDD (ClinicalTrials.gov Identifier: NCT05385783). […]
VALUE TYPE: half-life (h)
Give the number; h is assumed, so skip it.

Q: Given the entry [2H]C([2H])([2H])N(C([2H])([2H])[2H])C([2H])([2H])C([2H])([2H])c1c[nH]c2cccc(O)c12 [psilocin-d10] , report its measured half-life.
Ans: 5.51

----------
- METHOD DESCRIPTION: Phase I/IIa clinical PK of oral psilocin-d10, plasma, noncompartmental analysis (Cohorts 1-6)
- Type: in vivo, human
- STATED CONDITIONS: human, plasma, oral, 8 mg, range of means for 1, 3 and 8 mg doses; read-out: elimination half-life, on average
VALUE TYPE: half-life

Q: Given the entry [2H]C([2H])([2H])N(C([2H])([2H])[2H])C([2H])([2H])C([2H])([2H])c1c[nH]c2cccc(O)c12 , report its measured half-life.
Ans: 4.18 to 5.41 h

----------
- METHOD DESCRIPTION: Phase I/IIa clinical PK of oral psilocin-d10, plasma, noncompartmental analysis (Cohorts 1-6)
- Format: in vivo, human
- STATED CONDITIONS: human, plasma, po, 8 mg, 8 mg oral, Cohorts 2 and 3 NHV, pooled; read-out: Vz/F Mean (SD)
VALUE TYPE: Vd/F (L)
Give the number; L is assumed, so skip it.

Q: Given the entry [2H]C([2H])([2H])N(C([2H])([2H])[2H])C([2H])([2H])C([2H])([2H])c1c[nH]c2cccc(O)c12 [psilocin-d10] , report its measured Vd/F.
Ans: 744

----------
- METHOD DESCRIPTION: Phase I/IIa clinical PK of oral psilocin-d10, plasma, noncompartmental analysis (Cohorts 1-6)
- Format: in vivo, human
- STATED CONDITIONS: human, plasma, po, 16 mg, 16 mg oral, Cohort 6 MDD, all subjects incl. 3 with emesis; read-out: AUClast Mean (SD)
VALUE TYPE: AUC(0-t) (ng·h/mL)
Give the number; ng·h/mL is assumed, so skip it.

Q: Given the entry [2H]C([2H])([2H])N(C([2H])([2H])[2H])C([2H])([2H])C([2H])([2H])c1c[nH]c2cccc(O)c12 , report its measured AUC(0-t).
Ans: 151

----------
- METHOD DESCRIPTION: Phase I/IIa clinical PK of oral psilocin-d10, plasma, noncompartmental analysis (Cohorts 1-6)
- Format: in vivo, human
- STATED CONDITIONS: human, plasma, po, 12 mg, 12 mg oral, Cohorts 4 and 5 MDD, Day 1 and Day 22; read-out: Vz/F Mean (SD)
VALUE TYPE: Vd/F

Q: Given the entry [2H]C([2H])([2H])N(C([2H])([2H])[2H])C([2H])([2H])C([2H])([2H])c1c[nH]c2cccc(O)c12 [psilocin-d10] , report its measured Vd/F.
Ans: ~667 L

----------
- METHOD DESCRIPTION: Phase I/IIa clinical PK of oral psilocin-d10, plasma, noncompartmental analysis (Cohorts 1-6)
- Format: in vivo, human
- STATED CONDITIONS: human, plasma; 10 mg oral, Cohort 3 NHV, Day 8; read-out: Tmax Median
VALUE TYPE: Tmax (h)
Give the number; h is assumed, so skip it.

Q: Given the entry [2H]C([2H])([2H])N(C([2H])([2H])[2H])C([2H])([2H])C([2H])([2H])c1c[nH]c2cccc(O)c12 , report its measured Tmax.
Ans: 1

----------
- METHOD DESCRIPTION: Phase I/IIa clinical PK of oral psilocin-d10, plasma, noncompartmental analysis (Cohorts 1-6)
- Format: in vivo, human
- STATED CONDITIONS: human, plasma, oral, 8 mg, Cohort 2, Day 8, N = 4; read-out: Observed Mean Cmax
VALUE TYPE: Cmax (ng/mL)
Give the number; ng/mL is assumed, so skip it.

Q: Given the entry [2H]C([2H])([2H])N(C([2H])([2H])[2H])C([2H])([2H])C([2H])([2H])c1c[nH]c2cccc(O)c12 , report its measured Cmax.
Ans: 16.6
